Reported pIC50 by item:
Molecular target: PI3K alfa (Homo sapiens)
Construct: His tag (C); made in house; host or cells: baculovirus BV1075; Tn5 (Trichoplusia ni) or TiniPro insect cells
Test: PI3K alpha kinase assay (Kinase-Glo luminescence)
Assay type: biochemical
Details: read-out: PI3Kalfa/IC50
// returns pIC50 (minus log10 of molar concentration), number only

Here is how some compounds turned out for pIC50.
Cc1ncccc1-n1c(=O)n(C)c2cnc3ccc(-c4ccc(N)nc4)cc3c21 :: 7.74
Cc1cccnc1-n1c(=O)n(C)c2cnc3ccc(-c4ccc(CO)nc4)cc3c21 :: 6.42

Field pIC50 (entry CCOc1ccc(-c2ccc3ncc4c(c3c2)n(-c2ncccc2C)c(=O)n4C)cn1 ) reads 6.69

* * *

System: S6 Ribosomal Protein phosphorylation Ser235/236 in TSC1 null mouse embryo fibroblast (MEF) cells
Experiment: Reverse protein array, S6 Ribosomal Protein phosphorylation in TSC1 null MEF cells
Format: cell-based
Details: 1 h, TSC1-/- MEFs, 60 minutes, read-out: p-S6 IC50
Listed here are compounds together with their documented pIC50.
The scale used: pIC50 is minus the common logarithm of the concentration in molar units.

Cc1ncccc1-n1c(=O)n(C)c2cnc3ccc(-c4cncc(N5CCC5)c4)cc3c21 :: 8.30

Looking up CCNc1cc(-c2ccc3ncc4c(c3c2)n(-c2ccc(OC)nc2C)c(=O)n4C)cnc1C , I found its pIC50 recorded as 8.70

Record summary for COc1ccc(-n2c(=O)n(C)c3cnc4ccc(-c5cncc(N6CCC6)c5)cc4c32)c(OC)n1 : reported pIC50 = 9.00

Entry CNc1ccc(-c2ccc3ncc4c(c3c2)n(-c2ccc(NC(=O)COC)nc2C)c(=O)n4C)cn1 — recorded pIC50 = 7.20

The reported pIC50 of the compound Cc1ccc(-n2c(=O)n(C)c3cnc4ccc(-c5cnc(N)c(C(F)(F)F)c5)cc4c32)c(C)n1 was 9.00

The compound identified as Cc1ccc(-n2c(=O)n(C)c3cnc4ccc(-c5cncc(NC(C)C)c5)cc4c32)c(C)n1 registered its pIC50 at 8.70

Query COCCOc1ccc(-n2c(=O)n(C)c3cnc4ccc(-c5cncc(N6CCC6)c5)cc4c32)c(C)n1 yields pIC50 of 8.70

Noted for CNc1ncc(-c2ccc3ncc4c(c3c2)n(-c2ccc(NC(=O)COC)nc2C)c(=O)n4C)cn1 : its pIC50 reads 7.36

Briefly, pIC50 measured for CNc1ncc(-c2ccc3ncc4c(c3c2)n(-c2ccc(N3CC[C@H](O)C3)nc2C)c(=O)n4C)cc1F : 9.00

CNc1ncc(-c2ccc3ncc4c(c3c2)n(-c2ccc(OCCOC)nc2C)c(=O)n4C)cn1 has a reported pIC50 of 8.96

Given item CCOc1ccc(-c2ccc3ncc4c(c3c2)n(-c2ccc(C)nc2C)c(=O)n4C)cn1 , the value recorded as its pIC50 is 7.80

Looking up Cc1nc(N2CCC2)ccc1-n1c(=O)n(C)c2cnc3ccc(-c4cncc(N5CCC5)c4)cc3c21 , I see its pIC50 listed as 8.70

Given item COc1cc(-c2ccc3ncc4c(c3c2)n(-c2ccc(N3CCCC3)nc2C)c(=O)n4C)cnc1CO , the value recorded as its pIC50 is 8.15

* * *

Target: mTOR (Homo sapiens)
Construct: purchased Invitrogen Corporation (Carlsbad/Calif., USA) PV4753
Sequence (P42345 1360-2549 limits assumed): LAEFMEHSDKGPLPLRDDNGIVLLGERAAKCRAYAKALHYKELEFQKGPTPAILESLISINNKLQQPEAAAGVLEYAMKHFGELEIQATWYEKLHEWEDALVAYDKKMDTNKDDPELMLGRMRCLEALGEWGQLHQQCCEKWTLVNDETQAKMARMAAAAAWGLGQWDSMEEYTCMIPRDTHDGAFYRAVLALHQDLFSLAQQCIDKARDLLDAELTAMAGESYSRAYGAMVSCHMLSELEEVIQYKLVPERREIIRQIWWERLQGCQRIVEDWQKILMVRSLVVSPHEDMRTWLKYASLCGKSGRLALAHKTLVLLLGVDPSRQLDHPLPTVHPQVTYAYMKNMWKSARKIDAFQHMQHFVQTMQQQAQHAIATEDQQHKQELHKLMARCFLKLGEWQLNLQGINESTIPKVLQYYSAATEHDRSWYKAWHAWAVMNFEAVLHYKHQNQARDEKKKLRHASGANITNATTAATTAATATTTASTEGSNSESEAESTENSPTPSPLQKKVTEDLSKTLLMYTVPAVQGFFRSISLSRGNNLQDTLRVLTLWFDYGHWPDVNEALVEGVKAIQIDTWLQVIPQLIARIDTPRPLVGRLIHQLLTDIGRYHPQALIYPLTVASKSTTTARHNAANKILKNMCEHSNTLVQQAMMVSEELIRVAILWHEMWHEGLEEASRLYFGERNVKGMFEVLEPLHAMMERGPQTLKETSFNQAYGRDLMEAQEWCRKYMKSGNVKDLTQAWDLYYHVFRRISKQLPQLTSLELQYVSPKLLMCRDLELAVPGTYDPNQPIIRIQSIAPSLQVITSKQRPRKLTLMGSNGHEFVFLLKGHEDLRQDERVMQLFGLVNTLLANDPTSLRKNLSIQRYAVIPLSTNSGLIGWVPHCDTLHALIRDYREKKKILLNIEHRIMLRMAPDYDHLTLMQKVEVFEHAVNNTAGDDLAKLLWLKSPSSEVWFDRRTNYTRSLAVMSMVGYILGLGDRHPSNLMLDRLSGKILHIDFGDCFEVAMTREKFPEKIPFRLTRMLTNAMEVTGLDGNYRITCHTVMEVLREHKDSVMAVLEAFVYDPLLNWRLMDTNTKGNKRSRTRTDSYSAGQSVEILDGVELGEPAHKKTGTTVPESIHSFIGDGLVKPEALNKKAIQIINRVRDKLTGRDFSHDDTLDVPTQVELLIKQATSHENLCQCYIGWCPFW
Experiment: Biochemical assay for m-TOR by TR-FRET
Conditions: read-out: mTOR/IC50
measurementKind: pIC50
Worth noting: pIC50 values are minus log10 of concentrations stated in mol/L.

CCOc1ccc(-c2ccc3ncc4c(c3c2)n(-c2cccnc2C)c(=O)n4C)cn1 :: 7.38
COc1ccc(-c2ccc3ncc4c(c3c2)n(-c2cnccc2C)c(=O)n4C)cn1 :: 6.35
COc1ncccc1-n1c(=O)n(C)c2cnc3ccc(-c4cnc5[nH]ccc5c4)cc3c21 :: 8.40
Cn1c(=O)n(-c2cccnc2)c2c3cc(-c4ccc(CO)nc4)ccc3ncc21 :: 6.45
COc1ccc(-c2ccc3ncc4c(c3c2)n(-c2cccnc2OC)c(=O)n4C)cn1 :: 7.44

Query CCOc1ncc(-c2ccc3ncc4c(c3c2)n(-c2cccnc2C)c(=O)n4C)cn1 on mTOR (Homo sapiens); pIC50 returned: 6.78

Cc1ncccc1-n1c(=O)n(C)c2cnc3ccc(-c4cnc(N)c(C(F)(F)F)c4)cc3c21 on mTOR (Homo sapiens) gives pIC50 = 7.80

Tested on mTOR (Homo sapiens): COc1ccc(-c2ccc3ncc4c(c3c2)n(-c2cccnc2C)c(=O)n4C)cc1OC . Observed pIC50: 7.64

* * *

Below: a set of entries, each annotated with reported pIC50.
Test system: PKB Ser473 phosphorylation in Rat1-myr-HA-p110 beta cells
Experiment: Reverse protein array, PKB Ser473 phosphorylation in Rat1-myr-HA-p110 beta cells
Assay type: cell-based
Conditions: Rattus norvegicus, 0.5 h, 30 minutes compound incubation, read-out: p-PKB/IC50_beta
Interpret pIC50 as the negative base-10 log of the concentration measured in mol/L.

These recorded examples may help you get a feel for the data.
CNc1ncc(-c2ccc3ncc4c(c3c2)n(-c2ccc(N3CC[C@@H](O)C3)nc2C)c(=O)n4C)cn1 :: 7.70
CCNc1cc(-c2ccc3ncc4c(c3c2)n(-c2ccc(N3CC(F)(F)C(F)(F)C3)nc2C)c(=O)n4C)cnc1CO :: 8.28
CNc1ccc(-c2ccc3ncc4c(c3c2)n(-c2cnc(F)cc2C)c(=O)n4C)cn1 :: 6.85

Please find the next compound below.
Measured pIC50, COc1ccc(-c2ccc3ncc4c(c3c2)n(-c2cnccc2C)c(=O)n4C)cn1 : 6.44

* * *

Biological target: mTOR (Homo sapiens)
Construct: purchased Invitrogen Corporation (Carlsbad/Calif., USA) PV4753
Assay: Biochemical assay for m-TOR by TR-FRET
Conditions: read-out: mTOR/IC50
API: label(entry) gives Met if the entry's IC50 is strictly smaller than 20 nM; on equality or larger values it gives Not met.

COc1ncccc1-n1c(=O)n(C)c2cnc3ccc(-c4cnc(N)c(C(F)(F)F)c4)cc3c21 :: Met

Input COc1ccc(-c2ccc3ncc4c(c3c2)n(-c2cccnc2)c(=O)n4C)cn1 ; condition: IC50 strictly below 20 nM. Does it hold? Not met

Just wondering, is IC50 of CNc1ncc(-c2ccc3ncc4c(c3c2)n(-c2ncccc2C)c(=O)n4C)cn1 below 20 nM? Not met

Does this compound meet the criterion IC50 < 20 nM? Cc1cccnc1-n1c(=O)n(C)c2cnc3ccc(-c4ccc(C(N)=O)cc4)cc3c21 Not met

* * *

Recorded measurements of pIC50, one per entry
System: PKB Ser473 phosphorylation in Rat1-myr-HA-p110 beta cells
Assay: Reverse protein array, PKB Ser473 phosphorylation in Rat1-myr-HA-p110 beta cells
Type: cell-based
Details: Rattus norvegicus, 0.5 h, 30 minutes compound incubation, read-out: p-PKB/IC50_beta
// pIC50 here means minus log10 of the molar concentration (mol/L)

Completed entries (count: 3):
Cc1cccnc1-n1c(=O)n(C)c2cnc3ccc(-c4ccc(C(N)=O)cc4)cc3c21 :: 6.59
COc1cc(-c2ccc3ncc4c(c3c2)n(-c2ccc(N3CC(F)(F)C3)nc2C)c(=O)n4C)cnc1CO :: 7.36
Cc1nc(N2CC(F)(F)C(F)(F)C2)ccc1-n1c(=O)n(C)c2cnc3ccc(-c4cncc(C(C)(C)O)c4)cc3c21 :: 7.55

Looking up Cc1nc(N2CC[C@H](O)C2)ccc1-n1c(=O)n(C)c2cnc3ccc(-c4cncc(OC(C)C)c4)cc3c21 , I see its pIC50 listed as 7.20

pIC50 recorded for this compound, CCOc1ccc(-c2ccc3ncc4c(c3c2)n(-c2ccc(OC)nc2OC)c(=O)n4C)cn1 , is 7.46

Entry CNc1ccc(-c2ccc3ncc4c(c3c2)n(-c2cccnc2OC)c(=O)n4C)cn1 , pIC50 reported as 8.01

Lab book: pIC50 of COc1cc(-c2ccc3ncc4c(c3c2)n(-c2ccc(N(C)C)nc2C)c(=O)n4C)cnc1CO noted as 7.40

* * *

Target: PI3K alfa (Homo sapiens, UniProt P42336)
Construct: His tag (C); made in house; host or cells: baculovirus BV1075; Tn5 (Trichoplusia ni) or TiniPro insect cells
Sequence (P42336 with tags, fused parts or gaps limits assumed): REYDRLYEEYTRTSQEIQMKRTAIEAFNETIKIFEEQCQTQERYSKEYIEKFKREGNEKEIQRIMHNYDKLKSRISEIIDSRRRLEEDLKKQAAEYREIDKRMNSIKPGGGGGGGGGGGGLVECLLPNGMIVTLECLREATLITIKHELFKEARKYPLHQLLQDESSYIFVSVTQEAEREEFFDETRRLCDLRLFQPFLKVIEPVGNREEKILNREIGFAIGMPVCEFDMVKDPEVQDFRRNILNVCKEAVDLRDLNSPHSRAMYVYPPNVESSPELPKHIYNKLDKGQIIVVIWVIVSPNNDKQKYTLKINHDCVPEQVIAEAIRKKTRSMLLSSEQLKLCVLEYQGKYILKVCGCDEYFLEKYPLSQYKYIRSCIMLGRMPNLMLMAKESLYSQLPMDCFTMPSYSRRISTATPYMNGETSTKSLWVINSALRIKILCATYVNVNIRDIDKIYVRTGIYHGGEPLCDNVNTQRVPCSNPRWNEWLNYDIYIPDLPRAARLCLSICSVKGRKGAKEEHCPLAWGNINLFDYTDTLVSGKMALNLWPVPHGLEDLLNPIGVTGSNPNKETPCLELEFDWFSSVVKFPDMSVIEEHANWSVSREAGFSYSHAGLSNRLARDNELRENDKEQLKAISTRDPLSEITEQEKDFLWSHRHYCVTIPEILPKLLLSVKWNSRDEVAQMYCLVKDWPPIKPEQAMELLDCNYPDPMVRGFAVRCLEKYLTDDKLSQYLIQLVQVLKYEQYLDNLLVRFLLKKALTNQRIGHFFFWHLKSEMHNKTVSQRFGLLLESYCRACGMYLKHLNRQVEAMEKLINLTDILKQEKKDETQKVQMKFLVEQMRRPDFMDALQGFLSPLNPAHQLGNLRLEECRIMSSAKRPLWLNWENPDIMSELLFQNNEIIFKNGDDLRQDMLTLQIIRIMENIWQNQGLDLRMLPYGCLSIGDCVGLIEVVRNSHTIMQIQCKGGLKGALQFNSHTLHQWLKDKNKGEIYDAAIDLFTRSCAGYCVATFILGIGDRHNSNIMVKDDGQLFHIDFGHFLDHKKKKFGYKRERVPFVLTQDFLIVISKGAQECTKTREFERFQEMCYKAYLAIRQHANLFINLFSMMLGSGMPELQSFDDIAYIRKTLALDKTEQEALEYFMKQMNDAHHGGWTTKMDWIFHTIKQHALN
Assay: PI3K alpha kinase assay (Kinase-Glo luminescence)
Assay type: biochemical
Settings: read-out: EPK_PI3Kalfa/IC50
measurementKind: IC50 (nM)
Express it in nM; write the number only.

Consider the worked cases shown below.
CCNc1cc(-c2ccc3ncc4c(c3c2)n(-c2ccc(N3CCC3)nc2C)c(=O)n4C)cnc1CO :: 14
Cc1nc(C(F)(F)F)ccc1-n1c(=O)n(C)c2cnc3ccc(-c4cncc(C(C)(C)O)c4)cc3c21 :: 13
Cc1nc(C(F)(F)F)ccc1-n1c(=O)n(C)c2cnc3ccc(-c4cnc(N)c(CO)c4)cc3c21 :: 41

Continue with the compound presented below.
Sample CNc1ccc(-c2ccc3ncc4c(c3c2)n(-c2ccc(OCCOC)nc2C)c(=O)n4C)cn1 , system: PI3K alfa (Homo sapiens, UniProt P42336). Its IC50 is 31
